Every entry's value here was drawn from PubChem BioAssay AID651640.

Assay: inhibitors of DENV2 cytopathic effect, primary screen, cell-based, plate reader, single concentration (AID 651640);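 further: 0% = median of neutral control wells and 100% = median of positive control wells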
Details: DENV2-infected cells, cytopathic effect rescue, at 9.99 µM, hits give high values
The whole screen tested about 350,000 compounds, of which about 6,000 (1.7%) were called active. Inconclusive results (about 5%) are left out. The sample holds actives, similar compounds and a random draw of the others, so the mix is not that of the screen.
propertyLabel: CPE inhibition (%)
All answers are understood in %, so give the number only.

Tell me the measured CPE inhibition of "COc1ccc(C[C@H]2CN3C(=NC[C@H]3C)N2CCNC(=O)CCC2CCCCC2)cc1" , please.
-4.48

Also need CC(Oc1ccccc1)C(=O)Nc1c2c(nn1-c1ccccc1)CS(=O)C2 (stereo not drawn) , thanks.
2.29

Also need "CC(C)C#Cc1ccc2c(c1)O[C@@H](CN(C)C(=O)Nc1ccccc1)[C@H](C)CN([C@H](C)CO)S2(=O)=O" , thanks.
-2.16

Also need "Cc1ccccc1NC(=O)Cc1nc(COC(=O)CNC(=O)c2ccc(Cl)cc2Cl)cs1" , thanks.
-7.77

Also need "CCN(C[C@H]1[C@H](c2ccc(-c3ccccc3)cc2)[C@H](CO)N1CC1CC1)C(C)=O" , thanks.
-11.4

Also need "C[C@@H]1CN([C@@H](C)CO)S(=O)(=O)c2ccc(-c3ccccc3F)cc2O[C@H]1CN(C)Cc1cncnc1" , thanks.
-7.02

Also need "COc1ccc(NC(=O)CSc2nc(N)c(-c3ccccc3)c(=O)[nH]2)cc1" , thanks.
15.2

Also need "CCc1cccc(NC(=O)O[C@H]2[C@H](OC(=O)Nc3ccccc3-c3ccccc3)[C@H](OC(=O)Nc3ccccc3-c3ccccc3)[C@@H](OC)O[C@@H]2CO)c1" , thanks.
1.23

Also need Cc1ccc(-n2nc3c(c2NC(=O)CCC2CCCCC2)CS(=O)C3)cc1 (stereo not drawn) , thanks.
-3.75

Also need "C[C@@H]1CCCCO[C@H](CN(C)C(=O)NC2CCCCC2)[C@H](C)CN([C@@H](C)CO)C(=O)c2cc(NC(=O)C3CCCCC3)ccc2O1" , thanks.
-2.82

Also need "CCCNC(=O)[C@@H]1[C@@H](CO)[C@@H]2Cn3c(cccc3=O)[C@H]1N2C(=O)C1CC1" , thanks.
-2.53

Also need C/C=C\C=C\C(=O)N1CC2(CC(c3cccc(NC(=O)/C(C)=C\C)c3)=NO2)C[C@H]1C(N)=O (stereo partly drawn) , thanks.
11.7

Also need "Cc1ccccc1NC(=O)Cc1nc(COC(=O)C(C)(C)Oc2ccc(Cl)cc2)cs1" , thanks.
45.3

Also need "Nc1[nH]c(C(=O)c2ccc(Br)cc2)c(-c2ccc3c(c2)OCO3)c1C(=O)NCCc1c[nH]c2ccccc12" , thanks.
9.1

Also need "NC1=NC[C@@H](Cc2ccc(O)cc2)N1CC1CCCCC1" , thanks.
2.56

Also need "O=C(CCC(=O)c1ccccc1)NCc1cccc(C(F)(F)F)c1" , thanks.
-5.25

Also need "COc1ccc(NC(=O)c2cn(-c3ccccc3)nc2SC)cc1" , thanks.
30.9

Also need C/C=C(\C)C(=O)N1CC2(CC(c3cccc(NC(=O)CCCCC)c3)=NO2)C[C@@H]1C(N)=O (stereo partly drawn) , thanks.
85.8
